This collection of values is drawn from patent US12195427B2.

- testedSystem: MASP-2 CCP2-SP (Homo sapiens (Human), UniProt O00187)
- Sequence (O00187 445-686): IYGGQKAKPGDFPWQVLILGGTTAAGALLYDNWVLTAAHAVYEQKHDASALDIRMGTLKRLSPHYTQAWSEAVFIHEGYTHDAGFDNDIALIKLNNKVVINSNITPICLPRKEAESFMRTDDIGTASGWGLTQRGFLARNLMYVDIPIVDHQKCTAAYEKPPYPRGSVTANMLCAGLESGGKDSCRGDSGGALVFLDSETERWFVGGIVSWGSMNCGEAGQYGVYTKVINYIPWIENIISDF
- Sequence (O00187 364-432 partner): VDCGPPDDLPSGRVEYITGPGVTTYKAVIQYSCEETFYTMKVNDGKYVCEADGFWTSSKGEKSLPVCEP
- assayName: MASP-2 co-crystallization, X-ray crystallography and structure analysis (H-bonds, van der Waals contacts)
- recordedConditions: Table A1 (H-Bonds); SER 654 O
Structures can show the parent of a compound that is named as a salt.
observedProperty: H-bond distance to MASP-2 SER 654 atom O
Please reply with the value in numeric form only.

Some solved cases for reference:
C[C@H](NC(=O)[C@H]1C[C@@H](c2ccccc2)CCN1)C(=O)NCc1cc(Cl)ccc1O    2.66
C[C@H](NC(=O)[C@H](N)CCc1cc(Cl)cc(Cl)c1)C(=O)NCc1ccc(C(=N)N)cc1    2.88
Cc1nc(N)ccc1CNC(=O)[C@H](C)NC(=O)[C@H]1C[C@H](Cc2ccc3ccccc3c2)CN1    2.99
N=C(N)c1ccc(CNC(=O)C(CF)NC(=O)[C@H](N)CCc2ccccc2)cc1 (some centres unmarked) [compound 1050, Dihydrochloride]    3.03
Cc1nc(N)ccc1CNC(=O)[C@H](C)NC(=O)[C@H]1C[C@H](Cc2ccccc2-c2ccccc2)CN1 [compound 1373, Di-trifluoroacetate salt]    3.04

# query: H-bond distance to MASP-2 SER 654 atom O | item Cc1cnc(NCCc2ccccc2)c(=O)n1CC(=O)NCc1ccc2nc(N)[nH]c2c1 | system: MASP-2 CCP2-SP (Homo sapiens (Human), UniProt O00187) 2.78

Subsequent entry: CNC(=O)c1ccc2c(=O)n(Cc3ccccc3)c(=O)n(CC(=O)NCc3ccc(C(=N)N)cc3)c2c1 2.94

Also check C[C@H](NC(=O)[C@@H](CCc1ccccc1)NCc1ccc(N2CCOCC2)cc1)C(=O)NCc1ccc(C(=N)N)cc1 2.7

Try this molecule too: CC(=O)Nc1ccc(CCN[C@H](CCc2ccccc2)C(=O)N[C@@H](C)C(=O)NCc2ccc(C(=N)N)cc2)cc1 3.02

Then what about the molecule Cc1nc(N)ccc1CNC(=O)[C@H](C)NC(=O)[C@H]1C[C@H](Cc2cccc(Cl)c2)CN1 ? 2.67

====

- testedSystem: MASP-2 CCP2-SP (Homo sapiens (Human))
- assayName: MASP-2 co-crystallization, X-ray crystallography and structure analysis (H-bonds, van der Waals contacts)
- recordedConditions: Table A1 (H-Bonds); GLY 656 N
Structures can show the parent of a compound that is named as a salt.
observedProperty: H-bond distance to MASP-2 GLY 656 atom N
Just the number, please, no unit after it.

Cc1nc(N)ccc1CNC(=O)[C@H](C)NC(=O)[C@H]1C[C@H](Cc2cc(Cl)cc(Cl)c2)CN1 [compound 1435, Dihydrochloride]    3.26
C[C@H](NC(=O)[C@H]1C[C@H](c2ccccc2)CN1)C(=O)NCc1ccc(N)nc1    3.18
Cc1nc(N)ccc1CNC(=O)[C@H](C)NC(=O)[C@H]1C[C@@H](c2cccc3ccccc23)CCN1    3.33
Cc1nc(N)ccc1CNC(=O)[C@H](C)NC(=O)[C@H]1C[C@@H](c2ccccc2)CCN1 [compound 1253, Dihydrochloride]    3.23
C[C@H](NC(=O)[C@H]1C[C@H](Cc2ccccc2)CN1)C(=O)NCc1cnc2c(c1)c(Cl)cn2C [compound 1450, Dihydrochloride]    3.04
Cc1nc(N)ccc1CNC(=O)[C@H](C)NC(=O)[C@H]1C[C@H](Cc2ccccc2-c2ccccc2)CN1 [compound 1373, Di-trifluoroacetate salt]    3.2
C[C@H](NC(=O)[C@H]1C[C@H](c2ccccc2)CN1)C(=O)NCc1ccc2c(N)nccc2c1    3.3
C[C@H](NC(=O)[C@H]1C[C@@H](c2ccccc2)CN1)C(=O)NCc1ccc(C(=N)N)cc1    3.35
C[C@H](NC(=O)[C@H]1C[C@@H](c2ccccc2)CCN1)C(=O)NCc1ccc(C(=N)N)cc1 (stereo in doubt)    3.31
Cc1nc(N)ccc1CNC(=O)C(C)NC(=O)[C@H]1C[C@H](c2cccc(-c3ccccc3)c2)CN1 (stereo in doubt)    3.21

# H-bond distance to MASP-2 GLY 656 atom N lookup, item Cc1nc(N)ccc1CNC(=O)[C@H](C)NC(=O)[C@H]1C[C@H](Cc2cc(-c3ccccc3)cs2)CN1 [compound 1399, Dihydrochloride] 3.21

====

- testedSystem: MASP-2 CCP2-SP (Homo sapiens (Human), UniProt O00187)
- assayName: MASP-2 co-crystallization, X-ray crystallography and structure analysis (H-bonds, van der Waals contacts)
- recordedConditions: Table A2-3
Structures can show the parent of a compound that is named as a salt.
Recorded van der Waals contact distance, MASP-2 PHE 529 atom CE1 for the following compounds
Please state the value as a number alone, without comment.

Cc1nc(N)ccc1CNC(=O)[C@H](C)NC(=O)[C@H]1C[C@@H](c2ccccc2)CCN1C    3.85
C[C@H](NC(=O)[C@H]1C[C@@H](c2ccccc2)CCN1)C(=O)NCc1cnc2[nH]cc(Cl)c2c1    3.77

Look at this compound and give its reported van der Waals contact distance, MASP-2 PHE 529 atom CE1. N=C(N)c1ccc(CNC(=O)C(CF)NC(=O)[C@H](N)CCc2ccccc2)cc1 (some centres unmarked) [compound 1050, Dihydrochloride] 3.56

Param item: N=C(N)c1ccc(CNC(=O)[C@@H]2CCN2C(=O)[C@H](NCC(=O)O)C2Cc3ccccc3C2)cc1 3.52

Item: C[C@H](NC(=O)[C@H]1C[C@H](c2ccccc2)CN1)C(=O)NCc1ccc2c(N)nccc2c1 3.87

====

// reported d(H4,O2) for each item listed
- testedSystem: MASP-2 CCP2-SP (Homo sapiens (Human))
- assayName: MASP-2 co-crystallization, X-ray crystallography and structure analysis (H-bonds, van der Waals contacts)
- Design: unit not given beside the values
- recordedConditions: Table A5-1 pharmacophore: distance between elements, S2/S1 region

Please review the following examples before continuing.
N=C(N)c1ccc(CNC(=O)[C@@H]2CCN2C(=O)[C@H]2Cc3ccccc3CN2)cc1    4.31
Cc1nc(N)ccc1CNC(=O)[C@H](C)NC(=O)[C@H]1C[C@H](Cc2ccc(-c3ccccc3)cc2)CN1    3.70
C[C@H](NC(=O)[C@H]1C[C@@H](c2ccccc2)CCN1)C(=O)NCc1ccc(C(=N)N)cc1 (stereo in doubt)    5.35
C[C@H](NC(=O)[C@H]1C[C@@H](c2ccccc2)CCN1)C(=O)NCc1cc(Cl)ccc1O.Cl [1078_9]    2.49
C[C@H](NC(=O)[C@H]1C[C@H](c2ccccc2)CN1)C(=O)NCc1ccc2c(N)nccc2c1    3.68
C[C@H](NC(=O)[C@@H](CCc1ccccc1)NCCCc1ccc(O)cc1)C(=O)NCc1ccc(C(=N)N)cc1.Cl.Cl    4.48

The record that follows has no d(H4,O2) shown yet.
Consider the compound C[C@H](NC(=O)[C@H](N)CCCc1ccccc1)C(=O)NCc1ccc(C(=N)N)cc1.Cl.Cl [1042_2] and give its measured d(H4,O2). 4.01

====

- testedSystem: UniProt O00187
- assayName: MASP-2 co-crystallization, X-ray crystallography and structure analysis (H-bonds, van der Waals contacts)
- recordedConditions: Table A1 (H-Bonds); SER 657 O
Where a name gives a salt, the structure may show the parent alone.
In this section, each of the compounds is paired with its reported H-bond distance to MASP-2 SER 657 atom O.
Lab note: jot the number down without any unit.

Consider the reported H-bond distance to MASP-2 SER 657 atom O for these compounds:
CC(=O)Nc1ccc(CCN[C@H](CCc2ccccc2)C(=O)N[C@@H](C)C(=O)NCc2ccc(N)nc2C)cc1 [compound 1368, Dihydrochloride]    2.94
Cc1nc(N)ccc1CNC(=O)C(C)NC(=O)[C@H]1C[C@H](c2cccc(-c3ccccc3)c2)CN1 (stereo in doubt)    2.96

Item under review: C[C@H](NC(=O)[C@H]1C[C@@H](c2ccccc2)CN1)C(=O)NCc1ccc2c(N)nccc2c1 . Reported H-bond distance to MASP-2 SER 657 atom O? 2.93

Then what about the compound CC(=O)Nc1ccc(CCN[C@H](CCc2ccccc2)C(=O)N[C@@H](C)C(=O)NCc2ccc(C(=N)N)cc2)cc1 ? 3.01

Do the same for Cc1nc(N)ccc1CNC(=O)[C@H](C)NC(=O)[C@H]1C[C@H](Cc2cc(-c3ccccc3)cs2)CN1 [compound 1399, Dihydrochloride] please 2.86

Do the same for Cc1nc(N)ccc1CNC(=O)[C@H](C)NC(=O)[C@H]1C[C@H](Cc2cccc(Cl)c2)CN1 please 2.44

Note, next up: Cc1nc(N)ccc1CNC(=O)[C@H](C)NC(=O)[C@H]1C[C@H](Cc2cccc(-c3ccccc3)c2)CN1 2.78

Queued: C[C@H](NC(=O)[C@H](N)CCCc1ccccc1)C(=O)NCc1ccc(C(=N)N)cc1 2.65

And Cc1nc(N)ccc1CNC(=O)[C@H](C)NC(=O)[C@H]1C[C@H](Cc2ccccc2Br)CN1 [compound 1372, Di-trifluoroacetate salt] ? 2.87
